Taken from ChEMBL document CHEMBL1201862.

Test system: SF-268
Assay: NCI tumour cell line growth inhibition, 48 h
The source made the active and inactive calls. No stated cut-off is given here; in the data, active = GI50 up to about 1.1 µM and inactive = higher.
experimental_endpoint: GI50

Completed entries (count: 6):
* C/C(O[Si](C(C)C)(C(C)C)C(C)C)=C(\C)C(=O)N(C)c1ccccc1Cl | > 100 µM (inactive)
* O=C1CC[C@@]2(O)[C@H]3Cc4ccc(-c5cccc(O)c5)c5c4[C@@]2(CCN3CC2CC2)[C@H]1O5 | 22.3 µM (inactive)
* CC(C)(C)CNCCCNc1ccc(Cl)cc1 | 65.6 µM (inactive)
* Cn1c(=O)nc2n(-c3cc(Cl)ccc3Cl)c3ccccc3nc-2c1=O | 11.9 µM (inactive)
* CC(=O)CC12NC(=O)N(C)N=C1N(C)C(=O)N(C)C2=O (stereo not given) | 78.2 µM (inactive)
* CN1C2CCC1CC(CCNC(c1ccccc1)c1ccccc1)C2 (stereo not given) | 35.3 µM (inactive)

According to the records, this compound "O=C1c2ccccc2-c2cccc3ccc(Cc4ccc5ccccc5c4)c1c23" displays GI50 of > 100 µM (inactive)

According to the records, this compound "O=C1Cc2ccccc2N1c1c(Cl)cccc1Cl" displays GI50 of 71 µM (inactive)

According to the records, this compound C=CCOc1ccc(C2c3c(n[nH]c3O)CC(C)(O)C2C(=O)OC)cc1OC (stereo not given) displays GI50 of > 100 µM (inactive)

---

Items are presented alongside their recorded GI50.
Test system: OVCAR-4
Assay: NCI tumour cell line growth inhibition, 48 h
Activity calls are given as the source filed them. No stated cut-off is given here; in the data, active = GI50 up to about 1.1 µM and inactive = higher.

Completed entries (count: 5):
* N#CC1CCCC2SC(F)(F)C(F)(F)C12 (stereo unspecified) | > 100 µM (inactive)
* CC(=O)Nc1ccc(C(=O)N2N=C(C)/C(=C/c3cccc(O)c3)C2=O)cc1 | > 100 µM (inactive)
* Cc1cc(S(=O)(=O)/N=C(\NN)Nc2ccc(Cl)cc2)c(S)cc1Cl | 13.2 µM (inactive)
* CC(=O)NNc1nc(C)c(C(/C=C/c2ccc([N+](=O)[O-])cc2)=N/NC(N)=S)s1 | > 100 µM (inactive)
* Cc1cc2c(cc1C)[n+]([O-])c(C(=O)N1CCN(c3ccc([N+](=O)[O-])cc3)CC1)c(C)[n+]2[O-] | > 100 µM (inactive)

Then there is this compound:
According to the records, this compound C=CCOc1ccc(C2c3c(n[nH]c3O)CC(C)(O)C2C(=O)OC)cc1OC (stereo unspecified) displays GI50 of > 100 µM (inactive)

---

Tested on: MDA-MB-435
Assay: NCI tumour cell line growth inhibition, 48 h
Active and inactive are the calls of the source. No stated cut-off is given here; in the data, active = GI50 up to about 1.1 µM and inactive = higher.
Items are presented alongside their recorded GI50.

MDA-MB-435 data for COc1cc(C2c3cc4c(cc3[C@@H](Nc3ccc(F)cc3)C3COC[C@H]23)OCO4)cc(OC)c1O (stereo partly specified) ; its GI50: 6.15 µM (inactive)

MDA-MB-435 data for "Cn1c2ccccc2c2c3c(c4c5ccccc5n(C)c4c21)C(=O)c1ccccc1C3=O" ; its GI50: 51.3 µM (inactive)

MDA-MB-435 data for COC(=O)c1ccccc1C1CN=NC12Cc1ccc(C)cc1C2=O (stereo unspecified) ; its GI50: 33.3 µM (inactive)

MDA-MB-435 data for "O=C(CN1CCOCC1)NC1=Nc2ncccc2C(=O)NN1" ; its GI50: > 10 µM (inactive)

MDA-MB-435 data for "O=C1/C(=C/c2ccc(Cl)cc2)Sc2scc(-c3cccc([N+](=O)[O-])c3)[n+]21" ; its GI50: 3.4 µM (inactive)

MDA-MB-435 data for O=C1Oc2ccccc2C1C/C(=N\Nc1ccccc1)c1ccccc1O (stereo unspecified) ; its GI50: 27.2 µM (inactive)
